measurementDescription: Ocular PK in Brown Norway rats following a single oral dose (Example 5)
Type: in vivo
experimentalParameters: Brown Norway, rat; single oral dose 0.3 mg/kg, posterior eye cup, sampling 6-144 hrs; read-out: AUC(last) PEC
assayReadout: AUC(0-t)
Returns: string containing the numeric result and its unit.

Entry COc1cc2nccc(Oc3ccc(NC(=O)Nc4cc(C)on4)c(Cl)c3)c2cc1OC [Compound 6] — recorded AUC(0-t) = 83.5 µM·h

---

measurementDescription: Ocular PK in Brown Norway rats following a single oral dose (Example 5)
Format: in vivo
experimentalParameters: Brown Norway, rat; single oral dose 0.3 mg/kg, plasma, sampling 6-144 hrs; read-out: AUC(last) Plasma
assayReadout: AUC(0-t) (µM·h)
Form entry: value (µM·h) — number only.

Entry `COc1cc2nccc(Oc3ccc(NC(=O)Nc4cc(C)on4)c(Cl)c3)c2cc1OC` — recorded AUC(0-t) = 1.2

---

measurementDescription: Ocular PK in Brown Norway rats following a single oral dose (Example 5)
Format: in vivo
experimentalParameters: Brown Norway, rat; single oral dose 10 mg/kg, posterior eye cup, sampling 6-144 hrs; read-out: AUC(last) PEC
assayReadout: AUC(0-t)

Entry `CNC(=O)c1cc(Oc2ccc(NC(=O)Nc3ccc(Cl)c(C(F)(F)F)c3)cc2)ccn1` — recorded AUC(0-t) = 82 µM·h

---

measurementDescription: Ocular PK in Brown Norway rats following a single oral dose (Example 5)
Assay type: in vivo
experimentalParameters: Brown Norway, rat, retina/plasma, po, 10 mg/kg
Experimental: Three month old Brown Norway rats were administered orally with active agent of Table 1 at the dosing concentration and formulation specified in Table 3 infra. […] The ocular tissues collected were the retina and the posterior eye cup. Ocular tissues were homogenized and plasma proteins precipitated and drug concentration was analyzed by LC-MS/MS.
assayReadout: Kp
Answer using only a numeral; do not append any unit.

Entry `CNC(=O)c1cc(Oc2ccc(NC(=O)Nc3ccc(Cl)c(C(F)(F)F)c3)cc2)ccn1` — recorded Kp = 2.1
